src = PubChem BioAssay AID651950

Assay: Hsp70 transcriptional activators, SAR follow-up, cell-based, HeLa, Hsp70 promoter luciferase, luminescence (AID 651950)
Conditions: HeLa hsp70.1pr-luc reporter; at 99 µM (top of the series)
Activity calls are given as the source filed them. The rule behind the calls is not given here.
readout label: activation

Sample answers from the record:
In: Please give the measured activation for this compound: COc1cccc(N2C(=O)NC(=O)/C(=C/C=C/c3ccccc3[N+](=O)[O-])C2=O)c1
Out: -1.6% (inactive)

In: Please give the measured activation for this compound: COc1cc(C(=O)/C(=C/c2cccnc2)c2nc3ccccc3o2)cc(OC)c1OC
Out: -1.5% (inactive)

In: Please give the measured activation for this compound: O=C1/C(=C/c2ccncc2)CCC/C1=C\c1ccncc1
Out: -1.1% (active)

Here is another compound to look at.
In: Please give the measured activation for this compound: O=C1NC(=O)N(c2cccc(Cl)c2)C(=O)/C1=C\C=C\c1ccccc1
Out: -0.7% (active)
